- assay explanation: Acute toxicity in mice by the Lorke method
- experimental context: male, ICR, mouse, in vivo, ip
quantity kind: LD50 at 14 days (mg/kg)
Write down the numeric answer in mg/kg and omit the unit.

Record `CC1CCN(CC(=O)Nc2c(Cl)cccc2Cl)CC1` , field LD50 at 14 days: 800
